- System: Escherechia coli
- ASSAY_EXPLANATION: in vivo antibacterial activity against acute infections in mice, oral
- CONDITION_INFO: Escherichia coli, in Mus musculus, po, 96 h, read-out: percent animals which survived, E. coli, *200 mg./kg., mice, oral, 200 mg./kg. (footnote *)
READOUT_LABEL: responders at 200 mg/kg (%)
Quick note: give the figure in %, leave out the unit.

Would you please look over these solved cases?
1) Cc1c(C(=O)OCCOC(=O)CCC(=O)O)[n+]([O-])c2ccccc2[n+]1[O-] [drawing 100] = 100
2) CCCC(=O)OCCOC(=O)c1c(C)[n+]([O-])c2ccccc2[n+]1[O-] = 90
3) Cc1c(C(=O)OCCOC(=O)OCC(C)C)[n+]([O-])c2ccccc2[n+]1[O-] = 90
4) CCCCCCCCCC(=O)OCCOC(=O)c1c(C)[n+]([O-])c2ccccc2[n+]1[O-] = 100
5) CCCCCC(=O)OCCOC(=O)c1c(C)[n+]([O-])c2ccccc2[n+]1[O-] = 90
6) Cc1c(C(=O)OCCOC(=O)C[N+](C)(C)C)[n+]([O-])c2ccccc2[n+]1[O-] = 90

Query :: Fill in reported responders at 200 mg/kg for this entry: CCCCCCC(=O)OCCOC(=O)c1c(C)[n+]([O-])c2ccccc2[n+]1[O-]
Result :: 100

Query :: Fill in reported responders at 200 mg/kg for this entry: CCNC(=O)OCCOC(=O)c1c(C)[n+]([O-])c2ccccc2[n+]1[O-] [drawing 89]
Result :: 30

Query :: Fill in reported responders at 200 mg/kg for this entry: Cc1c(C(=O)OCCOC(=O)CCCC(=O)O)[n+]([O-])c2ccccc2[n+]1[O-]
Result :: 90
